These measurements were taken from patent US8546377B2.

Target: 5HT2C receptors (Homo sapiens)
Assay: Human 5-HT2C functional assay in CHO-K1 cells (calcium flux, FLIPR)
Assay type: cell-based
Parameters: expressed in transfected cells; host or cells: CHO-K1 cells
Conditions: CHO-K1 cells; percentage relative to the effect of serotonin; read-out: Emax (%), 5-HT2c Agonist Activity
Readout Label: Emax (%)

{"columns": ["Molecule", "Assay Result"],
 "data": [
  ["Cc1cccc(CCOc2ccc3c(c2)N2CCNC[C@@H]2CC(=O)N3)c1 [Example 176]", 100],
  ["FC(F)(F)c1ccc2c(c1)N1CCNC[C@@H]1CCO2 [Example 217]", 100]
]}

a: C[C@@H](Cc1ccccc1)Oc1ccc2c(c1)N1CCNC[C@H]1CC(=O)N2 [Example 167]
b: c1csc(-c2cccc3c2OCC[C@H]2CNCCN32)c1 [Example 249]
c: CCN1C(=O)CC2CN(C)CCN2c2ccc(Cl)cc21 (stereo not drawn) [Example 78]
Ask | Arrange items by their Emax values in increasing order. Hello, could you send the labels back in the order asked? Thank you.
Reply | c, b, a
(c: 50%, b: 75%, a: 110%)

----------
Target: 5HT2B receptors (Homo sapiens)
Construct: expressed in transfected cells; host or cells: CHO-K1 cells
Experiment: Human 5-HT2B functional assay in CHO-K1 cells (calcium flux, FLIPR)
Assay type: cell-based
Conditions: CHO-K1 cells; percentage relative to the effect of serotonin; read-out: Emax (%), 5-HT2B Agonist Activity
Readout Label: Emax (%)

Examples with their reported Emax follow.
{"columns": ["Compound", "Tested System", "Output Unit", "Emax"],
 "data": [
  ["CC(=O)c1cccc(-c2ccc3c(c2)N2CCNC[C@@H]2CCO3)c1 [Example 198]", "5HT2B receptors (Homo sapiens)", "%", 25],
  ["O=C1CC2CNCCN2c2cc(-c3ccsc3)ccc2N1 (stereo not drawn) [Example 72]", "5HT2B receptors (Homo sapiens)", "%", 20],
  ["O=C1CC2CNCCN2c2cc(OCc3ccccc3)ccc2N1 (stereo not drawn) [Example 149]", "5HT2B receptors (Homo sapiens)", "%", 30],
  ["CC(=O)c1ccccc1-c1ccc2c(c1)N1CCNC[C@@H]1CCO2 [Example 197]", "5HT2B receptors (Homo sapiens)", "%", 15],
  ["CC(O)c1cccc(-c2ccc3c(c2)N2CCNC[C@@H]2CCO3)c1 (stereo partly drawn) [Example 222]", "5HT2B receptors (Homo sapiens)", "%", 50]
]}

a: O=C1CC2CNCCN2c2cc(COc3ccccc3F)ccc2N1 (stereo not drawn) [Example 113]
b: O=C1CC2CNCCN2c2cc(COc3ccccc3)ccc2N1 (stereo not drawn) [Example 111]
Ask | Which has the higher Emax, a or b ? Answer = label.
Reply | a

----------
Target: 5HT2C receptors (Homo sapiens)
Test: Human 5-HT2C functional assay in CHO-K1 cells (calcium flux, FLIPR)
Type: cell-based
Set-up: expressed in transfected cells; host or cells: CHO-K1 cells
Details: CHO-K1, read-out: Emax (%), 5-HT2c Agonist Activity, CHO-K1 cells; percentage relative to the effect of serotonin
Examples of compounds with documented Emax follow.

{"columns": ["Compound", "Emax"],
 "data": [
  ["c1cncc(-c2ccc3c(c2)N2CCNC[C@@H]2CCO3)c1 [Example 206]", "> 120%"],
  ["O=C1C[C@H]2CNCCN2c2ccc(Cl)cc2N1 [Example 55]", "> 120%"],
  ["c1ccc2c(c1)OCC[C@H]1CNCCN21 [Example 169]", "> 120%"]
]}

Ask | Provide the reported Emax (system: 5HT2C receptors (Homo sapiens)) for O=C1C[C@H]2CNCCN2c2c(F)cccc2N1 [Example 86]
Reply | > 120%

Ask | Provide the reported Emax (system: 5HT2C receptors (Homo sapiens)) for O=C1C[C@H]2CNCCN2c2cc(Cl)ccc2N1 [Example 41]
Reply | > 120%

Ask | Provide the reported Emax (system: 5HT2C receptors (Homo sapiens)) for c1ccc2c(c1)CCCC1CNCCN21 (stereo not drawn) [Example 182]
Reply | > 120%

Ask | Provide the reported Emax (system: 5HT2C receptors (Homo sapiens)) for CN1CCC2CNCCN2c2ccc(Cl)cc21 (stereo not drawn) [Example 81]
Reply | > 120%

Ask | Provide the reported Emax (system: 5HT2C receptors (Homo sapiens)) for Cc1ccc2c(c1)N1CCNC[C@@H]1CC(=O)N2 [Example 36]
Reply | > 120%

Ask | Provide the reported Emax (system: 5HT2C receptors (Homo sapiens)) for CN1CCN2c3ccccc3CCCC2C1 (stereo not drawn) [Example 183]
Reply | > 120%

----------
Biological target: UniProtKB P28335
Assay: Human 5-HT2C functional assay in CHO-K1 cells (calcium flux, FLIPR)
Type: cell-based
Parameters: expressed in transfected cells; host or cells: CHO-K1 cells
Details: CHO-K1 cells; percentage relative to the effect of serotonin; read-out: Emax (%), 5-HT2c Agonist Activity
Readout Label: Emax

Examples with their reported Emax follow.
{"columns": ["Compound", "Emax"],
 "data": [
  ["O=C1CC2CNCCN2c2cc(/C=C/c3ccccc3C(F)(F)F)ccc2N1 (centres unmarked) [Example 142]", "> 120%"],
  ["O=C1CC2CNCCN2c2cc(COc3ccc(F)cc3)ccc2N1 (centres unmarked) [Example 115]", "> 120%"],
  ["CS(=O)(=O)c1cccc(-c2cccc3c2OCC[C@H]2CNCCN32)c1 [Example 239]", "105%"],
  ["Cc1ccc(-c2ccc3c(c2)N2CCNC[C@@H]2CCO3)cc1 [Example 191]", "> 120%"]
]}

Turning now to a further record.
Ask | // Input: C[C@H](Cc1ccccc1)Oc1ccc2c(c1)N1CCNC[C@H]1CC(=O)N2 [Example 166] . Output its Emax only.
Reply | > 120%

----------
Target: 5HT2B receptors (Homo sapiens, UniProt P41595)
Construct: expressed in transfected cells; host or cells: CHO-K1 cells
Sequence (P41595 whole entry): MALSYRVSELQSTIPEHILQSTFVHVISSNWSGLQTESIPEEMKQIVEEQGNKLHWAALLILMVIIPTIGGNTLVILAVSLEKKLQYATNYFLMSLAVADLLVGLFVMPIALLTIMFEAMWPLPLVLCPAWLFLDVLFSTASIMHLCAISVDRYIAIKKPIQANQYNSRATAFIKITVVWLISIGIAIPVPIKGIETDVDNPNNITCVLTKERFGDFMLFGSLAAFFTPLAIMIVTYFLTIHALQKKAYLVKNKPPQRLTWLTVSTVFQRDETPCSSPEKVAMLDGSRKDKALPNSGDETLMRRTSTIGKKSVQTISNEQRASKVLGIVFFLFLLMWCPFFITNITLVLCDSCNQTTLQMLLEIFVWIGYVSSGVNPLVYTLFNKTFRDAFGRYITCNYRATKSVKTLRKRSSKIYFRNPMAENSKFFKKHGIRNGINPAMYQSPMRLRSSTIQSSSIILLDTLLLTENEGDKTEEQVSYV
Experiment: Human 5-HT2B functional assay in CHO-K1 cells (calcium flux, FLIPR)
Format: cell-based
Conditions: CHO-K1 cells over-expressing 5HT2B, calcium flux; read-out: EC50 (μM), 5-HT2B Agonist Activity
Examples of molecules with documented EC50 follow.

Examples with their reported EC50 follow.
{"columns": ["Molecule", "Tested System", "EC50"],
 "data": [
  ["CN1C(=O)CC2CNCCN2c2cc(CCc3ccccc3)ccc21 (stereo not shown)", "5HT2B receptors (Homo sapiens, UniProt P41595)", "5 µM"],
  ["CCOc1ccc2c(c1)N1CCNCC1CC(=O)N2 (stereo not shown)", "5HT2B receptors (Homo sapiens, UniProt P41595)", "> 10 µM"],
  ["O=C1CC2CNCCN2c2cc(CCc3cccc(F)c3)ccc2N1 (stereo not shown)", "5HT2B receptors (Homo sapiens, UniProt P41595)", "> 10 µM"]
]}

Ask | // Input: CN1C(=O)CC2CNCCN2c2ccc(Cl)cc21 (stereo not shown) . Output its EC50 only.
Reply | > 10 µM

Ask | // Input: O=C1CC2CNCCN2c2cc(CCc3ccccc3C(F)(F)F)ccc2N1 (stereo not shown) . Output its EC50 only.
Reply | > 10 µM

Ask | // Input: C[C@H](Cc1ccccc1)Oc1ccc2c(c1)N1CCNC[C@@H]1CC(=O)N2 . Output its EC50 only.
Reply | > 10 µM

Ask | // Input: CC(=O)c1ccccc1-c1ccc2c(c1)N1CCNC[C@@H]1CCO2 . Output its EC50 only.
Reply | 1 µM

Ask | // Input: CCOc1ccc2c(c1)N1CCNC[C@@H]1CC(=O)N2 . Output its EC50 only.
Reply | > 10 µM

----------
Target: 5HT2C receptors (Homo sapiens, UniProt P28335)
Test: Human 5-HT2C functional assay in CHO-K1 cells (calcium flux, FLIPR)
Format: cell-based
Design: expressed in transfected cells; host or cells: CHO-K1 cells
Conditions: CHO-K1 cells over-expressing 5HT2C, calcium flux; read-out: EC50 (μM), 5-HT2c Agonist Activity
Readout Label: EC50 (µM)

P: c1csc(-c2cccc3c2OCC[C@H]2CNCCN32)c1
Q: O=C1C[C@H]2CNCCN2c2cc(CCc3ccccc3)ccc2N1
R: O=C1CC2CNCCN2c2cc(-c3ccccc3-c3ccccc3)ccc2N1 (stereo not drawn)
Ask | Form: Sort by [EC50] Order [ ascending ] Hello, could you send the labels back in the order asked? Thank you.
Reply | P, Q, R

----------
Biological target: UniProtKB P28335
Sequence (P28335 33-458): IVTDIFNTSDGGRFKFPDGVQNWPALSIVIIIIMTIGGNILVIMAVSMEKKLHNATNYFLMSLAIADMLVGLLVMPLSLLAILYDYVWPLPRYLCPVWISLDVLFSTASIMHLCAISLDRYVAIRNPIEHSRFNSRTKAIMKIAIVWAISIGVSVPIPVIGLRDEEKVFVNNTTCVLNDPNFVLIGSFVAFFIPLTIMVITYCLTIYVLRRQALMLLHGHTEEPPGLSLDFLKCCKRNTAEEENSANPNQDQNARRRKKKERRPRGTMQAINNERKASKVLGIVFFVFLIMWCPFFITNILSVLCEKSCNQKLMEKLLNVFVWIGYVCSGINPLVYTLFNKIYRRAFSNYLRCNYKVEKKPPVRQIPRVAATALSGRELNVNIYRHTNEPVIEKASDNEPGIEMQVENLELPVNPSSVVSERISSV
Test: Human 5-HT2C functional assay in CHO-K1 cells (calcium flux, FLIPR)
Format: cell-based
Design: expressed in transfected cells; host or cells: CHO-K1 cells
Conditions: CHO-K1 cells; percentage relative to the effect of serotonin; read-out: Emax (%), 5-HT2c Agonist Activity
Examples of compounds with documented Emax follow.

Examples with their reported Emax follow.
{"columns": ["Compound", "Emax"],
 "data": [
  ["O=C1CC2CNCCN2c2cc(OCc3ccccc3F)ccc2N1 (stereo not drawn)", "> 120%"],
  ["O=C1CC2CNCCN2c2cc(/C=C/c3ccccc3F)ccc2N1 (stereo not drawn)", "88%"]
]}

Turning now to a further record.
Ask | // Input: O=C1CC2CNCCN2c2cc(COc3ccccc3F)ccc2N1 (stereo not drawn) . Output its Emax only.
Reply | > 120%
